- MEASUREMENT DESCRIPTION: yeast display, Sf9 membrane polyspecificity reagent, FACS + sequencing; frameworks hold sequencing errors
RECORDED ENDPOINT: polyreactivity (PSR sort gate)

INPUT SEQUENCE: QVQLVESGGGLVQAGGSLRLSCAASGIIFSPYAMGWYRQAPVKERELVAAISYSGGSTYYADSVKGRFTISRDNAKNTVYLQMNSLKPEDTAVYYCAVVYSYYLAVLGYWDYDYWGQGTQVTVSS
polyreactivity (PSR sort gate): low polyreactivity

INPUT SEQUENCE: QVQLVESGGGLVQAGGSLRLSCAASGFTFLRNAMGWYRQAPGKERELVATISTSGGSTYYADSVKGRFTISRDNAKITVYLQMNSLKPEDTAVYYCAKRYRTRDSGYDYWGQGTQVTVSS
polyreactivity (PSR sort gate): high polyreactivity

INPUT SEQUENCE: QVQLVESGGGLVQAGGSLRLSCASSGSTFVTYAMGWYRQAPGKERELVAAITEDGASTYYADSVKGRFTISRDNAKNTVYLQMNSLKPEDTAVYYCAADPTYWPVWYVLYDYWGQGTQVTVSS
polyreactivity (PSR sort gate): low polyreactivity

INPUT SEQUENCE: QVHLVESGGGLVQAGGSLRLSCAASGRTFWVYAMGWYRQAPGKERQLVAAINRRGGGTYYADSVKGRFTISRDNAKNTVYLQMNTLKPEDTAVYYCAAVSTRVRVNYDSWGQGTQVTVSS
polyreactivity (PSR sort gate): high polyreactivity

Request the reported polyreactivity (PSR sort gate) associated with QVQLVESGVGLVQAGGSLRLRCAASGSIFRRYAMGWYRQAPGKERELVARITSSSGTTTYADSVKGRFTISRYNSKNNVYLQMNSLKPEDTAVYYCAAAWWHAYYGKNYYWGQGTQVTVSS
high polyreactivity

====

- MEASUREMENT DESCRIPTION: yeast display, Sf9 membrane polyspecificity reagent, FACS + sequencing; frameworks hold sequencing errors
RECORDED ENDPOINT: polyreactivity (PSR sort gate)

INPUT SEQUENCE: QVQLVESGGGLVQAGGRLRLSCAASGSTFGYYARGWYRQAPGKERELVAAISTSSGSKYFADSVKGRFTISRDNAKNTVYLQMNSLKPEDTAVYYCNARKASYRSIYYYWGQGTQVTVSS
VALUE REPORTED: high polyreactivity

INPUT SEQUENCE: QVQLVESGGGLVQAGGSLRLSCAASGLILRKYAMGWYRQAPGKEREFVAAITQTGSRSYYADSVKGRFTISRDNAKNTVYLQMNSLKPEDTAVYYCAARGTRAYRTYDYWGQGTQVTVSS
VALUE REPORTED: high polyreactivity

INPUT SEQUENCE: QVQLVESGGGLVQAGGSLRLSCAASGRIFWYYTMGWYRQAPGKERELVASINSDTGTYYADSVKGRFTISRDNAKNTVYLQMNSLKPEDTAVYYCNKDDYALSNTWRPEYDYWGQGTQVTVSS
VALUE REPORTED: low polyreactivity

INPUT SEQUENCE: QVQLVESGGGLVQAGGSLRLSCAASGSIFISYAMGWYRQAPGKERELVAAISSGGSTNYADSVKGRFTISRDNAKNTVYLQMNSLKPEDTAVYYCAADGWLLSFTGDGWWFDYWGQGTQVTVSS
VALUE REPORTED: low polyreactivity

INPUT SEQUENCE: QVQLVESGGGLVQAGGSLRLSCAASGFTFATYDMGLYRQAPGKERELVAAISRSGGRTYYADSVKVLFTISRDYAKNTVYLQMNSLKPEDTAVYYCAKYVPGYPYDYWGQGTQVTVSS
VALUE REPORTED: high polyreactivity

Give measured polyreactivity (PSR sort gate) for every item shown.
1. QVQLVESAAGLVQAGGSLRLSCAASGSTFGHYTMGWYRQAPGKERDLVAAISWSGGRTYYADSVKGRFTISRDYAKNTVYLQMNSLKPEDTAVYYCYVGYRGWSVNSWGQGTQVTVSS
2. QVQLVESGGGLVQAGGSLRLSCAASGLTFPQYAMGWYIQAPGKERELVAAISKTGGSTYYADSVKGRFTISRDNAKNTVYLLMNSLKPEDTAVYYCAAGSSVTPYRYYYWGQGTQVTVSS
3. QVQLVESGGGLVQAGGSLRLSCAASGGTFVYNAMGWYRQAPGKERELVAAIRVRGDTTYYADSVKGRFTISRDNAKYTVYLQMNSLKPEDTAVYYCAAYPDYSYYYWGQGTQVTVSS
4. QVQLVESGGGLVQAGGSLRLSCAASGRIFTNNPMGWYRQAPGQERELVAAISRSGGRTYYADSVKGRFTISRDNAKNTVYLQRNCLKPEDTAVYYCAAVHLYYGYNSPFTMDYWGQGTQVTVSS
5. QVQLVESAGGLVQAGGSLRLSCAASGRTITFNTMGLYRQAPGKERELVAGIDRGGSTNYADSVKGRFTISRDNAKNTVYLQMNSLKPEDTAVYYCAADPPGYVYGKRYYWGQGTQVTVSS
6. QVQLVESGGGLVQAGGSLRLSCAASGRIFQRNAMGWYRLAPGKERELVAAITSTGVRTYYADSVKGRFTISRDNAKNTVYLQLNSLKPEDTAVYYCAVRGERRYIYDYWGQGTQVTVSS

1. high polyreactivity
2. high polyreactivity
3. high polyreactivity
4. high polyreactivity
5. high polyreactivity
6. high polyreactivity

Give measured polyreactivity (PSR sort gate) for every item shown.
1. QVQLVESGGGLVQAGGSLRLSCAASGSILSENAMGWYRQAPGKERELVATISGSGSSTYYADSVKGRFTISRDNAKNTVYLQMNSLKPEDTAVYYCAAKYYLYWWPYDYWGQGTQVTVSS
2. QVHLVESGGGLVQAGGSLRLSCAASGRTFPSYAMGWYRQAPGKERELVAAISSSGGSTYYADSVKGRFTISRDNAKNTVYLQMNSLKPEDTAVYYCAAATPSGYYYWGQGTQVTVSS
3. QVQLVESGGGLVQAGGSLRLSCAASGRIFYVYGMGWYRQAPGKERELVAAISKRGDNTYYADSVKGRFTISRDNAKNTVYLQMNSLKPEDTAVYYCAAKYNYSPRAGFNFWGQGTQVTVSS
4. QVQLVESGGGLVQAGGSLRLSSAASGFIFRGYAMGWYRQAPGKERELVAVISRSGTSTYYADSVKGRFTFSRDNAKNTVYLQMNSLKPEDTAVYYCAVLNYAGKYYYWGQGTQVTVSS

low polyreactivity
high polyreactivity
high polyreactivity
high polyreactivity
